From: PubChem BioAssay AID1851

# target-or-system: Cytochrome P450 2C19 (Homo sapiens) (UniProt P33261)
# Sequence (P33261 whole entry, looked up): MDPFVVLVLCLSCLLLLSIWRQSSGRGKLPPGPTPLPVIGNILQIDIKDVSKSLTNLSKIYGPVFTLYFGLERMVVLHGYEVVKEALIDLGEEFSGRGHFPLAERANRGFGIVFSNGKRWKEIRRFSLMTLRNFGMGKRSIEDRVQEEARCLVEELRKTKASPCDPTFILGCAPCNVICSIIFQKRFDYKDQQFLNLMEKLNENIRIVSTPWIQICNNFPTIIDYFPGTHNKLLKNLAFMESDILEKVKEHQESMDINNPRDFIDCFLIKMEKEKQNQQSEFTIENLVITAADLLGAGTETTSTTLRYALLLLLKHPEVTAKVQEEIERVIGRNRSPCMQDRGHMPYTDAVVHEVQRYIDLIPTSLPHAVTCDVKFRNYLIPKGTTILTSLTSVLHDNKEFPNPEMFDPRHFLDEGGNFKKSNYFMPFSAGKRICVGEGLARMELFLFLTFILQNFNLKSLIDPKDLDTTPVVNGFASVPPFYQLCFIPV
# test-protocol: Cytochrome panel assay with activity outcomes
# assay-conditions: recombinant CYP, pro-luciferin dealkylation, luminescence, p450-cyp2c19; series mostly up to 57.1 µM
The whole screen tested about 16,000 compounds, of which about 5,800 (36%) were called active. Not shown: some 23% with an inconclusive outcome. Calls come from the whole dose curve; as a rule, active = well fitted curve in the direction sought with a large enough effect; inconclusive = small, poorly fitted or top-dose-only effect, or effect the other way; inactive = no such curve, though single readings can be large or run the other way. Some of the results follow.
Choose the fitting class; nothing outside 1 for active, -1 for inactive is accepted.

Answered cases to consult:
CC(=O)OCc1c(C(F)(F)F)nn(C)c1Sc1ccccc1 ... 1
CCCCN1CCC(COC(=O)c2cc(Cl)c(N)c3c2OCCO3)CC1 ... -1
CCCCC(=O)NC(=S)Nc1cccc(NC(=O)CC)c1 ... 1
Cc1cccc(C)c1NC(=O)CS(=O)CC(=O)NCCCc1ccccc1 (stereo not given) ... -1
Cc1ccc(C(=O)COC(=O)c2ccccc2N2C(=O)C3C4CCC(C4)C3C2=O)cc1C (stereo not given) ... 1
COc1cc([C@H](O)CO)ccc1O ... -1

Recorded call for CCN(CC)CCNC(=O)c1cc(Br)c(N)cc1OC ? -1

Recorded call for N#Cc1nc(COc2ccccc2Cl)oc1NCc1ccco1 ? 1

Recorded call for CCc1c(C)nc2ncnn2c1NCCc1ccc(OC)cc1 ? 1

Recorded call for Cc1cc(Oc2ccc(-c3ccccc3)cc2)nc(N2CCOCC2)n1 ? 1
